These measurements were taken from patent US10919885B2.

# targetOrTestSystem: UniProt O00767
# assayNotes: Yeast growth assay, strain expressing human SCD1 as the sole desaturase (reduced growth as surrogate for SCD inhibition)
# setupConditions: yeast with OLE1 deleted expressing human SCD1 from a plasmid; growth read as OD600 after 40 h at 30° C.; top drug concentration 33.3 μM
Listed here: items and their measured IC50.

compound: O=C(c1cc(-c2ccc3c(c2)OCO3)on1)N1CCCC1c1cccc(F)c1 (stereo not drawn) [Compound 367]
IC50: > 45 µM
//
compound: N#Cc1ccccc1-c1cc(C(=O)N2CCC(c3ccccc3)CC2)no1 [Compound 326]
IC50: > 45 µM
//
compound: CNC(=O)c1cc(C(=O)Nc2cnn(Cc3cccc(F)c3)c2)no1 [Compound 87]
IC50: 15 µM
//
compound: O=C(c1cc(-c2ccn3ncnc3c2)on1)N1CCC[C@H]1c1ccccc1 [Compound 432]
IC50: 40 µM
//
compound: O=C(Nc1cnn(Cc2ccccc2)c1)c1cc(N2CCCCC2)on1 [Compound 159]
IC50: 0.058 µM
//
compound: O=C(Nc1cnn(Cc2ncccc2C(F)(F)F)c1)c1cc(-c2ccccc2F)on1 [Compound 196]
IC50: > 45 µM

Q. Entry N#Cc1ccc2c(C(=O)N3CCC[C@H]3c3ccccc3)noc2c1 [Compound 456] needs its IC50 filled in; supply it.
A. > 45 µM

Q. Using known records, supply IC50 for COc1ccc(C2CCCN2C(=O)c2cc(-c3ccc4c(c3)OC(F)(F)O4)on2)cc1 (stereo not drawn) [Compound 393]
A. > 45 µM

Q. Tell us which IC50 value is on record for Cn1nccc1C1CCCN1C(=O)c1cc(-c2ccc3c(c2)OCO3)on1 (stereo not drawn) [Compound 417]
A. > 45 µM

----------
# targetOrTestSystem: human SCD5 (Homo sapiens (Human))
# assayNotes: Yeast growth assay, strain expressing human SCD5 as the sole desaturase (reduced growth as surrogate for SCD inhibition)
# setupConditions: yeast with OLE1 deleted expressing human SCD5 from a plasmid; growth read as OD600 after 40 h at 30° C.; top drug concentration 33.3 μM
pIC50: −log10 of the molar value.
pIC50 listing for selected compounds.

Solved entries:
compound: CC(C)c1cc(C(=O)N2CCC(c3ccccc3)C2)no1 (centres unmarked)
pIC50: < 4.35

compound: O=C(Nc1cnn(Cc2ccccn2)c1)c1cc(-c2ccccc2)on1
pIC50: < 4.35

compound: Cn1ncc2ccc(-c3cc(C(=O)N4CC(c5ccccc5)C4)no3)cc21
pIC50: 5.79

compound: O=C(c1cc(-c2ccncn2)on1)N1CC(c2ccccc2)C1
pIC50: 5.50

compound: N#Cc1ccc(-c2cc(C(=O)Nc3cnn(Cc4cc(F)ccc4C(F)(F)F)c3)no2)nc1
pIC50: < 4.35

Kindly consider the entry below.
Q. Quote pIC50 reported for O=C(NC1CCN(Cc2ccccc2)C1)c1cc(-c2ccco2)on1 (centres unmarked) please.
A. < 4.35

----------
pIC50 values by entry
# targetOrTestSystem: human SCD1 (Homo sapiens (Human))
# assayNotes: Yeast growth assay, strain expressing human SCD1 as the sole desaturase (reduced growth as surrogate for SCD inhibition)
# setupConditions: yeast with OLE1 deleted expressing human SCD1 from a plasmid; growth read as OD600 after 40 h at 30° C.; top drug concentration 33.3 μM
pIC50: −log10 of the molar value.

Examples with answers:
compound: COc1ccc(C2CCCN2C(=O)c2cc(-c3ccc(OC)c(OC)c3)on2)cc1 (centres unmarked)
pIC50: 4.49
//
compound: CN(C)CC(c1ccccc1)n1cc(NC(=O)c2cc(-c3ccccc3)on2)cn1 (centres unmarked)
pIC50: < 4.35
//
compound: O=C(c1cc(-c2ccc3c(c2)OCO3)on1)N1CC(Oc2ccccc2)C1
pIC50: < 4.35
//
compound: O=C(c1cc(-c2ccco2)on1)N1CCC(c2ccccc2)C1 (centres unmarked)
pIC50: < 4.35

Continue with the next compound.
Q. Provide one value: measured pIC50 of N#Cc1ccc(C2CCCN2C(=O)c2cc(-c3ccc4c(c3)OCO4)on2)cc1 (centres unmarked)
A. < 4.35

----------
# targetOrTestSystem: human SCD5 (Homo sapiens (Human), UniProt Q86SK9)
# Sequence (Q86SK9 whole entry): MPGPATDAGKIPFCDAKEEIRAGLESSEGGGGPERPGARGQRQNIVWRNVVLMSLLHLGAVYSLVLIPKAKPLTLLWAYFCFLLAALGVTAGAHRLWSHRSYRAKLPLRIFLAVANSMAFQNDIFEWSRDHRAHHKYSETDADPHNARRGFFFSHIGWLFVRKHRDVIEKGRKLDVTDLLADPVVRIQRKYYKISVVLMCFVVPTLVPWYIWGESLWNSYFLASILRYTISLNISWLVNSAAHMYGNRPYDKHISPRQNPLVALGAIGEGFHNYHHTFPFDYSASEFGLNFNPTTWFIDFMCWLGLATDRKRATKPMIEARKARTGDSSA
# assayNotes: Yeast growth assay, strain expressing human SCD5 as the sole desaturase (reduced growth as surrogate for SCD inhibition)
# Assay type: cell-based
# setupConditions: yeast with OLE1 deleted expressing human SCD5 from a plasmid; growth read as OD600 after 40 h at 30° C.; top drug concentration 33.3 μM
pIC50: −log10 of the molar value.
Items are presented alongside their recorded pIC50.

Worked cases, pIC50 given:
molecule: O=C(c1cc(-c2ccc3c(c2)OCO3)on1)N1CCN(c2cccc(F)c2)CC1 [Compound 282]
pIC50: < 4.35

molecule: N#Cc1cccc(Cn2cc(NC(=O)c3cc(-c4ccccc4)on3)cn2)c1 [Compound 132]
pIC50: < 4.35

molecule: CC(C)(C)OC(=O)Nc1cc(C(=O)Nc2cnn(Cc3ccccc3)c2)no1 [Compound 181]
pIC50: < 4.35

molecule: O=C(c1ccncc1)N1CCN(C(=O)c2cc(-c3ccc4c(c3)OCO4)on2)CC1 [Compound 276]
pIC50: < 4.35

molecule: Cn1cc(NC(=O)c2cc(-c3ccco3)on2)cn1 [Compound 10]
pIC50: < 4.35

Q. Quote pIC50 reported for O=C(c1cc(-c2ccccn2)on1)N1CC(c2ccccc2)C1 [Compound 233] please.
A. 5.51

Q. Supply measured pIC50 of O=C(c1cc(-c2ccccc2)on1)N1CC2(C=C(c3ccccc3)C2)C1 [Compound 225] in your reply.
A. 5.19

----------
Measured IC50 accompanies every entry in the list below.
# targetOrTestSystem: human SCD1 (Homo sapiens (Human), UniProt O00767)
# Sequence (O00767 whole entry): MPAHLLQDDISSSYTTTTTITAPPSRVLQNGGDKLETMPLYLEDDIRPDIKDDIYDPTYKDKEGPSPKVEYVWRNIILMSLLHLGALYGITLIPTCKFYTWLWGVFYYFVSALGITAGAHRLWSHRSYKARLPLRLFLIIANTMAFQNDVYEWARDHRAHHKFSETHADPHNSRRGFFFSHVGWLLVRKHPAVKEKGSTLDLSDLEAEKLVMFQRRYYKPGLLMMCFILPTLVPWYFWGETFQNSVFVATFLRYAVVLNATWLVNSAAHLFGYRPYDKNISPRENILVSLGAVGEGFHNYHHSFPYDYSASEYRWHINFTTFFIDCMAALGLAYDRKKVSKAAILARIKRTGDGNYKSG
# assayNotes: Yeast growth assay, strain expressing human SCD1 as the sole desaturase (reduced growth as surrogate for SCD inhibition)
# setupConditions: yeast with OLE1 deleted expressing human SCD1 from a plasmid; growth read as OD600 after 40 h at 30° C.; top drug concentration 33.3 μM

Solved entries:
molecule: O=C(Nc1cnn(Cc2ccccc2)c1)c1cc(-c2cccc(F)c2)on1 [Compound 144]
targetOrTestSystem: human SCD1 (Homo sapiens (Human), UniProt O00767)
reportedValue: > 45 µM

molecule: O=C(Nc1cnn(Cc2ccc(C(F)(F)F)cc2)c1)c1cc(-c2ccco2)on1 [Compound 16]
targetOrTestSystem: human SCD1 (Homo sapiens (Human), UniProt O00767)
reportedValue: > 45 µM

molecule: CO[C@H]1CCN(c2cc(C(=O)Nc3cnn(Cc4ccccc4)c3)no2)C1 [Compound 189]
targetOrTestSystem: human SCD1 (Homo sapiens (Human), UniProt O00767)
reportedValue: 0.065 µM

Q. Give me measured IC50, please, for this molecule: N#Cc1ccc(Cn2cc(NC(=O)c3cc(-c4ccccc4)on3)cn2)cc1 [Compound 42]
A. > 45 µM

Q. Give the measured IC50 for O=C(Nc1cnn(Cc2ccccc2)c1)c1cc(-c2ccncc2F)on1 [Compound 147]
A. > 45 µM

Q. Assign IC50 to the following record: O=C(Nc1cnnc(Oc2ccccc2)c1)c1cc(-c2ccccc2)on1 [Compound 311]
A. > 45 µM

Q. Specify reported IC50 for the molecule shown: O=C(Nc1cnn(Cc2cccc(F)c2)c1)c1cc(-c2ccon2)on1 [Compound 72]
A. 0.084 µM

Q. Provide measured IC50 value, entry: O=C(Nc1cnn(Cc2ccccc2)c1)c1cc(-c2cccc3cnn(C4COC4)c23)on1 [Compound 96]
A. > 45 µM

Q. Report IC50 for O=C(c1cc(-c2ccc3c(c2)OCO3)on1)N1CCCC1c1ncco1 (stereo not drawn) [Compound 423]
A. > 45 µM

----------
# targetOrTestSystem: UniProt:O00767
# assayNotes: Yeast growth assay, strain expressing human SCD1 as the sole desaturase (reduced growth as surrogate for SCD inhibition)
# setupConditions: yeast with OLE1 deleted expressing human SCD1 from a plasmid; growth read as OD600 after 40 h at 30° C.; top drug concentration 33.3 μM
valueType: IC50

Some solved cases for reference:
compound: COc1ccc(C2CCCN2C(=O)c2cc(-c3ccc(C(F)(F)F)cc3)on2)cc1 (centres unmarked)
valueType: IC50
reportedValue: > 45 µM
//
compound: O=C(c1cc(-c2ccc3c(c2)OCO3)on1)N1CC(c2ccccc2)C1
valueType: IC50
reportedValue: 1.57 µM

Q. Query IC50 for "N#Cc1cccc(-c2cc(C(=O)Nc3cnn(Cc4ccccc4)c3)no2)c1"
A. 4.62 µM

Q. State, in one line, measured IC50 of "O=C(c1cc(-c2ccc3c(c2)OCO3)on1)N1CCC[C@H]1C(F)(F)F"
A. > 45 µM

Q. Return value of IC50 for input "Cc1cnccc1-c1cc(C(=O)Nc2cnn(Cc3ccccc3)c2)no1" , no commentary.
A. > 45 µM

----------
# targetOrTestSystem: human SCD1 (Homo sapiens (Human), UniProt O00767)
# assayNotes: Yeast growth assay, strain expressing human SCD1 as the sole desaturase (reduced growth as surrogate for SCD inhibition)
# setupConditions: yeast with OLE1 deleted expressing human SCD1 from a plasmid; growth read as OD600 after 40 h at 30° C.; top drug concentration 33.3 μM
pIC50: −log10 of the molar value.
// pIC50 lookup, one value per entry

compound: O=C(Nc1cnn(Cc2ccccc2)c1)c1cc(N2CC[C@H](O)C2)on1 [Compound 187]
valueType: pIC50
reportedValue: 4.82
--
compound: O=C(Nc1cnn(Cc2ccc(F)cc2)c1)c1cc(-c2ccccc2)on1 [Compound 112]
valueType: pIC50
reportedValue: < 4.35
--
compound: O=C(c1cc(-c2ccc3c(c2)OCO3)on1)N1CCCC1c1cnccn1 (stereo not drawn) [Compound 418]
valueType: pIC50
reportedValue: < 4.35
--
compound: N#Cc1ccc(Cn2cc(NC(=O)c3cc(-c4ccccc4)on3)cn2)s1 [Compound 43]
valueType: pIC50
reportedValue: < 4.35
--
compound: Cc1nn(Cc2ccc(Cl)c(Cl)c2)cc1NC(=O)c1cc(-c2ccco2)on1 [Compound 17]
valueType: pIC50
reportedValue: < 4.35

Q. Supply pIC50 value. Item: O=C(Nc1cnn(Cc2ccccc2)c1)c1cc(N2CCCC2)on1 [Compound 178]
A. 8.00

Q. Output measured pIC50 for this item: N#Cc1cccc(-c2cc(C(=O)N3CCC(c4ccccc4)CC3)no2)c1 [Compound 317]
A. < 4.35

Q. Give pIC50 for O=C(Nc1cnn(Cc2ccccc2)c1)c1cc(N2CCNCC2)on1 [Compound 190]
A. < 4.35

Q. Give pIC50 for Cc1nn(C)c2cc(-c3cc(C(=O)N4CCCC4c4cccnn4)no3)ccc12 (stereo not drawn) [Compound 462]
A. < 4.35
